Overview of recorded melting point for various compounds

compound="CC(c1ccc(C#N)cc1)S(=O)(=O)C[C@H](CC1CCCCC1)NC(=O)OC(C)(C)C (some centres unmarked)" meas_value="58 to 65 °C"
compound="C#Cc1ccc(C(C)S(=O)(=O)C[C@@H](NC(=O)OC(C)C)C(C)C)cc1 (some centres unmarked)" meas_value="125 to 135 °C"
compound="CC(C)[C@@H](CS(=O)(=O)C(C)c1ccc(Br)cc1)NC(=O)Oc1ccccc1 (some centres unmarked)" meas_value="55 to 65 °C"

IN: Dear colleague, I am looking for the recorded melting point of the following compound: COC(=O)c1ccc(C(C)S(=O)(=O)C[C@@H](NC(=O)OC(C)C)C(C)C)cc1 (some centres unmarked)
OUT: 140 to 145 °C

IN: Sample Cc1ccc(OC(=O)N[C@H](CS(=O)(=O)C(C)c2ccc(C#N)cc2)C(C)C)cc1 (some centres unmarked) — what was its melting point?
OUT: 65 to 74 °C

IN: Query (compound): COc1cccc(OC(=O)N[C@H](CS(=O)(=O)C(C)c2ccc(C#N)cc2)C(C)C)c1 (some centres unmarked) ; field requested: melting point
OUT: 50 to 53 °C

IN: Field request: melting point | item: CC(C)OC(=O)N[C@H](CS(=O)(=O)C(C)c1ccc(Cl)c(Cl)c1)C(C)C (some centres unmarked)
OUT: 75 to 85 °C

IN: Find the recorded melting point belonging to CC(C)OC(=O)N[C@H](CS(=O)(=O)C(C)c1ccc(Br)cc1)C(C)C (some centres unmarked) and report it.
OUT: 60 to 70 °C
